Every entry's value here was drawn from the supplement of paper PMC9233669.

Each item that follows carries a reported self-aminoacylation.
system: biotinyl-Met-oxazolone; experiment: self-aminoacylation, catalytic enhancement (BMO) (fold over background); higher = more active; k-Seq, kA / k0A0; sequences stand for … in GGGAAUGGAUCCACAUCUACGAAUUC…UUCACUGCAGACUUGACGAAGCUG
This sample holds only a part of the variants without activity.

Recorded results for 4 sequences are shown here.
* AUUACCCUGGUCUUCAAGUGA [Fam2.1 aminoacylation ribozyme variant] | 4.91
* CUACGUAAAACAAUCGGUCUG [Fam1A.1 aminoacylation ribozyme variant] | 0.999
* AGUACGCUGGUCAUCGAGUGA [Fam2.1 aminoacylation ribozyme variant] | 2.82
* CCACACUUGAAGCUAUCGGUC [Fam1B.1 aminoacylation ribozyme variant] | 0.885

Qu. Give me measured self-aminoacylation, please, for this sequence: AUUAACCCGGUCAUCGAGUGA [Fam2.1 aminoacylation ribozyme variant]
Ans. 7.21

###

system: biotinyl-Trp-oxazolone; experiment: self-aminoacylation, catalytic enhancement (BWO) (fold over background); higher = more active; k-Seq, kA / k0A0; sequences stand for … in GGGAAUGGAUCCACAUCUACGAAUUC…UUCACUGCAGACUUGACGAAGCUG
This sample holds only a part of the variants without activity.
Grouping key: self-aminoacylation. Bins: low end = under 2, middle = from 2 up to 5, high end = 5 and over

Qu. Could you tell me which band AUUCACCUAUGUCAUGGGGUG [Fam2.2 aminoacylation ribozyme variant] belongs to?
Ans. middle

Qu. Entry CCACACUUCACGGAAUCGGUC [Fam1B.1 aminoacylation ribozyme variant] belongs to which category?
Ans. low end

Qu. Bin? CCACACUUCAAGCAAUCAGUG [Fam1B.1 aminoacylation ribozyme variant]
Ans. middle

Qu. Band assignment needed for AUACACCUAGGUAAUCGGGUG [Fam2.2 aminoacylation ribozyme variant] please.
Ans. middle

Qu. The entry to classify is AUCCACCUAGUUCAUCGGGUG [Fam2.2 aminoacylation ribozyme variant] ; which class holds it?
Ans. middle

###

self-aminoacylation reference
tested on: biotinyl-Met-oxazolone; test: self-aminoacylation, catalytic enhancement (BMO) (fold over background); higher = more active; k-Seq, kA / k0A0; sequences stand for … in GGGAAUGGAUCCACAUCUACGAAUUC…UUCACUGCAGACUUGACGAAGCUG
Variants at the floor of the assay were thinned out.
Enter the number alone.

Worked examples follow.
• CUUCUUCAAACAAUCGGUCUG [Fam1A.1 aminoacylation ribozyme variant] = 0.996
• GUUCACCUAGCUCAUCGGGUG [Fam2.2 aminoacylation ribozyme variant] = 1.64
• AAUUUUGCUAAUAGUCGCAAA [Fam3.1 aminoacylation ribozyme variant] = 3.1
• CCACUUCAAACAAUCGGGCUG [Fam1A.1 aminoacylation ribozyme variant] = 2.13
• CUACUUCACACAAUCGUUCUG [Fam1A.1 aminoacylation ribozyme variant] = 0.477
• CUACAUUUCAAGCAAUCGGUC [Fam1B.1 aminoacylation ribozyme variant] = 0.748

Now consider a different sequence.
Qu. Hello, please tell me recorded self-aminoacylation for this one: AUUACCGUGGUUAUCGAGUGA [Fam2.1 aminoacylation ribozyme variant]
Ans. 10.7

###

tested on: biotinyl-Trp-oxazolone; assay: self-aminoacylation, catalytic enhancement (BWO) (fold over background); higher = more active; k-Seq, kA / k0A0; sequences stand for … in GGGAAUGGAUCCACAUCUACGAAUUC…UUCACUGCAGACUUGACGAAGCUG
This sample holds only a part of the variants without activity.
Assign class by self-aminoacylation: not lower than 4 means true (1); lower than 4 means false (0).

Worked set:
- AUCACCCUGGUCAUCUAGUGA [Fam2.1 aminoacylation ribozyme variant]: true (1)
- CCACACUUCAACCAAUCUGUC [Fam1B.1 aminoacylation ribozyme variant]: false (0)

Lab note: next sequence to report on.
Qu. Would you say AUUACCCUGGUCAACGAGUGC [Fam2.1 aminoacylation ribozyme variant] shows self-aminoacylation at minimum 4?
Ans. false (0)

###

test system: biotinyl-Trp-oxazolone; assay: self-aminoacylation, catalytic enhancement (BWO) (fold over background); higher = more active; k-Seq, kA / k0A0; sequences stand for … in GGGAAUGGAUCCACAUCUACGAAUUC…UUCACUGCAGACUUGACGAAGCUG
Fewer inactive variants are shown than the library holds.
readoutKind: self-aminoacylation
I only need the number, thanks.

Qu. Specify self-aminoacylation for CCACACUUCAAGCACCCGGUC [Fam1B.1 aminoacylation ribozyme variant] , system biotinyl-Trp-oxazolone.
Ans. 2.07

Qu. Fill: self-aminoacylation (biotinyl-Trp-oxazolone) for this sequence AAGUGUGCUAAUAGUCGCAAA [Fam3.1 aminoacylation ribozyme variant]
Ans. 1.88

Qu. Under biotinyl-Trp-oxazolone, report self-aminoacylation for CUACUUCAGACAAUCGGCCUG [Fam1A.1 aminoacylation ribozyme variant]
Ans. 2.23

Qu. Give self-aminoacylation for AAGUGUGCUAAUAGUCGCGAG [Fam3.1 aminoacylation ribozyme variant] tested on biotinyl-Trp-oxazolone.
Ans. 2.41

Qu. Give self-aminoacylation only, for CCACUUCAAACAAUCGCUCUG [Fam1A.1 aminoacylation ribozyme variant] , using biotinyl-Trp-oxazolone data.
Ans. 2.69

Qu. Give measured self-aminoacylation for AUUCACCUUCGUCAUCGGGUG [Fam2.2 aminoacylation ribozyme variant] (biotinyl-Trp-oxazolone).
Ans. 2.79

Qu. State, for biotinyl-Trp-oxazolone, measured self-aminoacylation of the sequence listed here: CCACACUUCUAGCACUCGGUC [Fam1B.1 aminoacylation ribozyme variant]
Ans. 0.913

Qu. Would you please give the reported self-aminoacylation of AUGCACCUAGGGCAUCGGGUG [Fam2.2 aminoacylation ribozyme variant] with biotinyl-Trp-oxazolone?
Ans. 4.75

Qu. Please tell me the measured self-aminoacylation for AUUCACCUAGGUCCUCGGGCG [Fam2.2 aminoacylation ribozyme variant] ; system: biotinyl-Trp-oxazolone.
Ans. 3.17

Qu. Retrieve self-aminoacylation on biotinyl-Trp-oxazolone; query CUACUUCAAACAAUCGGCGUG [Fam1A.1 aminoacylation ribozyme variant]
Ans. 5.22

###

test system: biotinyl-Val-oxazolone; experiment: self-aminoacylation, catalytic enhancement (BVO) (fold over background); higher = more active; k-Seq, kA / k0A0; sequences stand for … in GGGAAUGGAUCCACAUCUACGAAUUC…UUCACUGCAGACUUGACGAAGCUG
This sample holds only a part of the variants without activity.
Parameter self-aminoacylation: see the listing below.

• CUACUUCAAACCAUCGGUCUC [Fam1A.1 aminoacylation ribozyme variant] = 0.72
• AUUACCAUGGUCAUAGAGUGA [Fam2.1 aminoacylation ribozyme variant] = 3.51
• CCAGAUUUCAAGCAAUCGGUC [Fam1B.1 aminoacylation ribozyme variant] = 1.4
• AUUCGGCUAGGUCAUCGGGUG [Fam2.2 aminoacylation ribozyme variant] = 3.7
• CCAUACUUCAAGCGAUCGGUC [Fam1B.1 aminoacylation ribozyme variant] = 1.25
• AGGUUAGCUAAUAGUCGCAAG [Fam3.1 aminoacylation ribozyme variant] = 1.77

Qu. Entry AUUCAUCUCGGUCAUCGGGUG [Fam2.2 aminoacylation ribozyme variant] needs its self-aminoacylation filled in; supply it.
Ans. 4.55

###

test system: biotinyl-Ile-oxazolone; assay: self-aminoacylation, catalytic enhancement (BIO) (fold over background); higher = more active; k-Seq, kA / k0A0; sequences stand for … in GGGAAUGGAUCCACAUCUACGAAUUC…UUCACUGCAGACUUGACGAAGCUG
Fewer inactive variants are shown than the library holds.
readoutKind: self-aminoacylation
The response must contain the number and no unit.

Example entries and their recorded answers appear below.
* CUACCUCAAACGAUCGGUCUG [Fam1A.1 aminoacylation ribozyme variant] | 0.987
* AGUCACCUAGGUCAUCGAGUG [Fam2.2 aminoacylation ribozyme variant] | 3.67
* CAACUUAAAACAAUCGGUCUG [Fam1A.1 aminoacylation ribozyme variant] | 0.984

Qu. Annotate the sequence AAGUCUGCUAAUAGUCGCUAG [Fam3.1 aminoacylation ribozyme variant] with its measured self-aminoacylation.
Ans. 0.989

Qu. Input AUGCACCUAGGUCAUCGAGUG [Fam2.2 aminoacylation ribozyme variant] , output reported self-aminoacylation.
Ans. 2.61

Qu. Quickly give me recorded self-aminoacylation for AUUACCCUGGUCAUGGAAUGA [Fam2.1 aminoacylation ribozyme variant]
Ans. 1.19

Qu. Provide one value: measured self-aminoacylation of CCACACUUAAAGCAUUCGGUC [Fam1B.1 aminoacylation ribozyme variant]
Ans. 1.63

Qu. Given AAGUUUGCUAAUACUUGCAAG [Fam3.1 aminoacylation ribozyme variant] , respond with its self-aminoacylation.
Ans. 0.743

Qu. Entry UUUACCCUGGUCAUCUAGUGA [Fam2.1 aminoacylation ribozyme variant] needs its self-aminoacylation filled in; supply it.
Ans. 4.72

###

test system: biotinyl-Trp-oxazolone; test: self-aminoacylation, catalytic enhancement (BWO) (fold over background); higher = more active; k-Seq, kA / k0A0; sequences stand for … in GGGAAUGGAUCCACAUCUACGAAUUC…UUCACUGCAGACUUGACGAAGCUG
This sample holds only a part of the variants without activity.
readoutKind: self-aminoacylation
Note: the reply should be a number with no unit written.

* AUUAGCCUGGUCAACGAGUGA [Fam2.1 aminoacylation ribozyme variant] | 6.82
* AUUACCCUAGUCAUGGAGUGA [Fam2.1 aminoacylation ribozyme variant] | 5.17
* AUUCUACUAGGUCAUCGGGUG [Fam2.2 aminoacylation ribozyme variant] | 5.93
* CCACACUUCAAGAAAUCGGUG [Fam1B.1 aminoacylation ribozyme variant] | 8.37
* CCACUUCAAACAAUCGGGCUG [Fam1A.1 aminoacylation ribozyme variant] | 27.2

Qu. Identify measured self-aminoacylation corresponding to CCACCCUUUAAGCAAUCGGUC [Fam1B.1 aminoacylation ribozyme variant]
Ans. 0.888
